biological target: Recombinant Human NF-kappaB-inducing Kinase (NIK/MAP3K14) (Homo sapiens (Human), UniProt Q99558); experiment: Biological Assay A2: inhibition of auto-phosphorylation of recombinant human NIK/MAP3K14 (AlphaScreen); format: biochemical; settings: 25 microM ATP, 0.2 nM GST-tagged NIK/MAP3K14, 1 h at 25° C., averaged values, read-out: Alpha-Screen IC50
Sequence (Q99558 whole entry): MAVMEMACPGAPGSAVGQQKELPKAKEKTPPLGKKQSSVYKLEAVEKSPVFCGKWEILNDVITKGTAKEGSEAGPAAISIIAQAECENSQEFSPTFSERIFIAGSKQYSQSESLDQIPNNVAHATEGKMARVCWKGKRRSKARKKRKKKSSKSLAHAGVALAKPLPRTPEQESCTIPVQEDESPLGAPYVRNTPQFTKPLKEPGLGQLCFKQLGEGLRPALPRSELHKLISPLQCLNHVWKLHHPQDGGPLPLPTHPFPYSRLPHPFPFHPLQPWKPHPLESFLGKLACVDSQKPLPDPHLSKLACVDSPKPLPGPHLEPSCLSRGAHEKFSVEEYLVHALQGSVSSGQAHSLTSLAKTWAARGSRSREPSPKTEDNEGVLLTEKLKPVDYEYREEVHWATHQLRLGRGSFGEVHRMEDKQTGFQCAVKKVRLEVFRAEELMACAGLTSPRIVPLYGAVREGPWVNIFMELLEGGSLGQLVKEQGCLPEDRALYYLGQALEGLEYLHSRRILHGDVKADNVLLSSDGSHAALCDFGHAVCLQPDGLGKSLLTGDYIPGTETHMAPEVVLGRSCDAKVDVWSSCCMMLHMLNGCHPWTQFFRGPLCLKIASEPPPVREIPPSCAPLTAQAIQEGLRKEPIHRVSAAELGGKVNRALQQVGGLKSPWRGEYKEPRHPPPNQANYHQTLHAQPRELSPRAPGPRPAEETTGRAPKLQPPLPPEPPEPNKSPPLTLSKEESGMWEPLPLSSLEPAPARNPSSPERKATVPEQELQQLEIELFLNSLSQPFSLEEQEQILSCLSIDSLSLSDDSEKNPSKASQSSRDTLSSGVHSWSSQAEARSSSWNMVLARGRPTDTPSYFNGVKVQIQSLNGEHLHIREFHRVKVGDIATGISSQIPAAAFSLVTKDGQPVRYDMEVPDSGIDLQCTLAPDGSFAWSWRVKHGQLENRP
assayReadout: log10 of IC50 (log10 of the value in nM)
Quick note: numbers are log10 of IC50, with nM as the unit.

{"compound": "CC(O)(C#Cc1cc2c(-c3cn[nH]c3)c[nH]c2cn1)c1nccs1 (stereo not drawn) [Compound 7]", "log10 of IC50": 0.95}
{"compound": "CCn1cc(-c2c[nH]nc2C)c2cc(C#CC(C)(C)O)ncc21 [Compound 30]", "log10 of IC50": 1.36}
{"compound": "CN1CC(n2cc(-c3cn[nH]c3)c3cc(C#CC(C)(C)O)ncc32)C1 [Compound 34]", "log10 of IC50": 2.23}
{"compound": "[2H]C([2H])([2H])C(O)(C#Cc1cc2c(-c3c[nH]nc3Cl)cn(C3CCN(C)CC3)c2c(C)n1)C([2H])([2H])[2H] [Compound 45]", "log10 of IC50": 2.05}
{"compound": "CC(C)(O)C#Cc1cc2c(-c3cn[nH]c3)cn(CC3CCOC3)c2cn1 (stereo not drawn) [Compound 2]", "log10 of IC50": 1.92}

Next compound, log10 of IC50 to be filled in.
Recorded log10 of IC50 of COCCn1cc(-c2cn[nH]c2)c2cc(C#CC(C)(C)O)ncc21 [Compound 16] , please.
2.00
